Test system: HMLER
test_name: cells
Type: cell-based, human
stated_conditions: 72 h
pIC50: −log10 of the molar value. Peptide text beside a SMILES is read from it.
Recorded pIC50 by entry
assay_endpoint: pIC50

CC(C)C[C@H](NC(=O)CN)C(=O)N[C@@H](CC(C)C)C(=O)N[C@@H](CC(=O)O)C(=O)N[C@@H](CC(C)C)C(=O)N[C@@H](CC(C)C)C(=O)N[C@@H](CCCCN)C(=O)N[C@@H](CC(C)C)C(=O)N[C@@H](CC(C)C)C(=O)N[C@@H](CC(C)C)C(=O)N[C@@H](CCC(=O)O)C(=O)N[C@@H](C)C(=O)N[C@@H](C)C(=O)NCC(=O)N[C@@H](Cc1c[nH]c2ccccc12)C(N)=O [DKE] (H-GLLDLLKLLLEAAGW-NH2) : 5.68
CC(C)C[C@H](NC(=O)CN)C(=O)N[C@@H](CC(C)C)C(=O)N[C@@H](CCCCN)C(=O)N[C@@H](CC(C)C)C(=O)N[C@@H](CC(C)C)C(=O)N[C@@H](CCCCN)C(=O)N[C@@H](CC(C)C)C(=O)N[C@@H](CC(C)C)C(=O)N[C@@H](CC(C)C)C(=O)N[C@@H](CCC(=O)O)C(=O)N[C@@H](C)C(=O)N[C@@H](C)C(=O)NCC(=O)N[C@@H](Cc1c[nH]c2ccccc12)C(N)=O [KKE] (H-GLLKLLKLLLEAAGW-NH2) : 5.69
CC(C)C[C@H](NC(=O)CN)C(=O)N[C@@H](CC(C)C)C(=O)N[C@@H](Cc1c[nH]cn1)C(=O)N[C@@H](CC(C)C)C(=O)N[C@@H](CC(C)C)C(=O)N[C@@H](CCCCN)C(=O)N[C@@H](CC(C)C)C(=O)N[C@@H](CC(C)C)C(=O)N[C@@H](CC(C)C)C(=O)N[C@@H](Cc1c[nH]cn1)C(=O)N[C@@H](C)C(=O)N[C@@H](C)C(=O)NCC(=O)N[C@@H](Cc1c[nH]c2ccccc12)C(N)=O [HKH] (H-GLLHLLKLLLHAAGW-NH2) : 5.46
CC(C)C[C@H](NC(=O)CN)C(=O)N[C@@H](CC(C)C)C(=O)N[C@@H](CC(=O)O)C(=O)N[C@@H](CC(C)C)C(=O)N[C@@H](CC(C)C)C(=O)N[C@@H](CCCCN)C(=O)N[C@@H](CC(C)C)C(=O)N[C@@H](CC(C)C)C(=O)N[C@@H](CC(C)C)C(=O)N[C@@H](Cc1c[nH]cn1)C(=O)N[C@@H](C)C(=O)N[C@@H](C)C(=O)NCC(=O)N[C@@H](Cc1c[nH]c2ccccc12)C(N)=O [DKH] (H-GLLDLLKLLLHAAGW-NH2) : 5.46
CC(C)C[C@H](NC(=O)CN)C(=O)N[C@@H](CC(C)C)C(=O)N[C@@H](Cc1c[nH]cn1)C(=O)N[C@@H](CC(C)C)C(=O)N[C@@H](CC(C)C)C(=O)N[C@@H](CCC(=O)O)C(=O)N[C@@H](CC(C)C)C(=O)N[C@@H](CC(C)C)C(=O)N[C@@H](CC(C)C)C(=O)N[C@@H](Cc1c[nH]cn1)C(=O)N[C@@H](C)C(=O)N[C@@H](C)C(=O)NCC(=O)N[C@@H](Cc1c[nH]c2ccccc12)C(N)=O [HEH] (H-GLLHLLELLLHAAGW-NH2) : 4.54
